For each entry below, report its Observed Cmax, peak area value.
# Protocol Details: Clinical pharmacokinetics of ivermectin metabolites in blood of healthy volunteers
# Assay type: in vivo, human
# Condition Label: PK subject 6, 50 µL blood
Numbers only, in counts.

{"columns": ["Compound", "Recorded Number"],
 "data": [
  ["CCC(C)C1OC2(CCC1C)CC1CC(CC=C(C)C(OC3CC(OC)C(OC4CC(OC)C(O)C(C)O4)C(C)O3)C(C)C=CC=C3COC4C(O)C(CO)=CC(C(=O)O1)C34O)O2 (stereo not shown) [M2, 4-hydroxy-H2B1a]", "2.00E+04"],
  ["CC[C@H](C)[C@H]1O[C@]2(CC[C@@H]1CO)C[C@@H]1C[C@@H](C/C=C(\\C)[C@@H](O[C@H]3C[C@H](OC)[C@@H](O)[C@H](C)O3)[C@@H](C)/C=C/C=C3\\CO[C@@H]4[C@H](O)C(C)=C[C@@H](C(=O)O1)[C@]34O)O2 [M5, 24-hydroxy-H2B1a monosaccharide]", "1.25E+03"],
  ["CCC(C)C1OC2(CCC1C)CC1CC(CC=C(C)C(OC3CC(OC)C(OC4CC(O)C(O)C(C)O4)C(C)O3)C(C)C=CC=C3COC4C(O)C(CO)=CC(C(=O)O1)C34O)O2 (stereo not shown) [M4, 3″-O-desmethyl, 4-hydroxy-H2B1a]", "7.98E+03"]
]}

Now, please, on to the next compound.
Need Observed Cmax, peak area of CCC(C)C1OC2(CCC1C)CC1CC(CC=C(C)C(OC3CC(OC)C(OC4CC(O)C(O)C(C)O4)C(C)O3)C(C)C=CC=C3COC4C(O)C(C)=CC(C(=O)O1)C34O)O2 (stereo not shown) , thanks. 2.33E+04

---

# Protocol Details: Clinical pharmacokinetics of ivermectin metabolites in blood of healthy volunteers
# Type: in vivo, human
# Condition Label: PK subject 9, 50 µL blood
# Description: Peripheral venous blood samples were collected before dosing and after 1, 2, 4, 6, 8, 12, 24, 48 and 72 h. Blood samples (50 µL) were extracted by the addition of 150 µL ISTD solution. […] The different LC–MS/MS settings were applied for the metabolism, pharmacokinetic and metabolite fractioning assays (Additional file 1: Table S1, S2, S3). […] The system was operated with Analyst Software 1.7 (AB Sciex) and acquired data were analysed using MultiQuant Software 3.0.3 (AB Sciex). […]
Assay Metric: Observed Cmax, peak area (counts)
Numbers only, in counts.

Examples with their reported Observed Cmax, peak area follow.
{"columns": ["Compound", "Assay Metric", "Recorded Number"],
 "data": [
  ["CCC(C)C1OC2(CCC1C)CC1CC(CC=C(C)C(OC3CC(OC)C(OC4CC(O)C(O)C(C)O4)C(C)O3)C(C)C=CC=C3COC4C(O)C(CO)=CC(C(=O)O1)C34O)O2 (stereo not shown) [M4, 3″-O-desmethyl, 4-hydroxy-H2B1a]", "Observed Cmax, peak area", "4.12E+03"],
  ["CC[C@H](C)[C@H]1O[C@]2(CC[C@@H]1CO)C[C@@H]1C[C@@H](C/C=C(\\C)[C@@H](O[C@H]3C[C@H](OC)[C@@H](O)[C@H](C)O3)[C@@H](C)/C=C/C=C3\\CO[C@@H]4[C@H](O)C(C)=C[C@@H](C(=O)O1)[C@]34O)O2 [M5, 24-hydroxy-H2B1a monosaccharide]", "Observed Cmax, peak area", "6.59E+02"]
]}

# batch size: 2; output Observed Cmax, peak area per entry
1. CCC(C)C1OC2(CCC1C)CC1CC(CC=C(C)C(OC3CC(OC)C(OC4CC(O)C(O)C(C)O4)C(C)O3)C(C)C=CC=C3COC4C(O)C(C)=CC(C(=O)O1)C34O)O2 (stereo not shown)
2. CCC(C)C1OC2(CCC1C)CC1CC(CC=C(C)C(OC3CC(OC)C(OC4CC(OC)C(O)C(C)O4)C(C)O3)C(C)C=CC=C3COC4C(O)C(CO)=CC(C(=O)O1)C34O)O2 (stereo not shown) [M2, 4-hydroxy-H2B1a]

1. 1.28E+04
2. 1.08E+04

---

For each entry below, report its Observed Cmax, peak area value.
# Protocol Details: Clinical pharmacokinetics of ivermectin metabolites in blood of healthy volunteers
# Assay type: in vivo, human
# Condition Label: PK subject 11, 50 µL blood
One number for each entry, in counts.

Examples with their reported Observed Cmax, peak area follow.
{"columns": ["Compound", "Assay Metric", "Unit Info", "Recorded Number"],
 "data": [
  ["CCC(C)C1OC2(CCC1C)CC1CC(CC=C(C)C(OC3CC(OC)C(OC4CC(O)C(O)C(C)O4)C(C)O3)C(C)C=CC=C3COC4C(O)C(CO)=CC(C(=O)O1)C34O)O2 (stereo not shown) [M4, 3″-O-desmethyl, 4-hydroxy-H2B1a]", "Observed Cmax, peak area", "counts", "5.67E+03"],
  ["CCC(C)C1OC2(CCC1C)CC1CC(CC=C(C)C(OC3CC(OC)C(OC4CC(OC)C(O)C(C)O4)C(C)O3)C(C)C=CC=C3COC4C(O)C(CO)=CC(C(=O)O1)C34O)O2 (stereo not shown) [M2, 4-hydroxy-H2B1a]", "Observed Cmax, peak area", "counts", "1.64E+04"],
  ["CC[C@H](C)[C@H]1O[C@]2(CC[C@@H]1CO)C[C@@H]1C[C@@H](C/C=C(\\C)[C@@H](O[C@H]3C[C@H](OC)[C@@H](O)[C@H](C)O3)[C@@H](C)/C=C/C=C3\\CO[C@@H]4[C@H](O)C(C)=C[C@@H](C(=O)O1)[C@]34O)O2 [M5, 24-hydroxy-H2B1a monosaccharide]", "Observed Cmax, peak area", "counts", "8.95E+02"]
]}

Now, please, on to the next compound.
Need Observed Cmax, peak area of CCC(C)C1OC2(CCC1C)CC1CC(CC=C(C)C(OC3CC(OC)C(OC4CC(O)C(O)C(C)O4)C(C)O3)C(C)C=CC=C3COC4C(O)C(C)=CC(C(=O)O1)C34O)O2 (stereo not shown) [M1, 3″-O-desmethyl-H2B1a] , thanks. 2.28E+04

---

For each entry below, report its Observed Cmax, peak area value.
# Protocol Details: Clinical pharmacokinetics of ivermectin metabolites in blood of healthy volunteers
# Type: in vivo, human
# Condition Label: PK subject 1, 50 µL blood
One number for each entry, in counts.

{"columns": ["Compound", "Unit Info", "Observed Cmax, peak area"],
 "data": [
  ["CCC(C)C1OC2(CCC1C)CC1CC(CC=C(C)C(OC3CC(OC)C(OC4CC(O)C(O)C(C)O4)C(C)O3)C(C)C=CC=C3COC4C(O)C(CO)=CC(C(=O)O1)C34O)O2 (stereo not shown) [M4, 3″-O-desmethyl, 4-hydroxy-H2B1a]", "counts", "6.13E+03"],
  ["CCC(C)C1OC2(CCC1C)CC1CC(CC=C(C)C(OC3CC(OC)C(OC4CC(O)C(O)C(C)O4)C(C)O3)C(C)C=CC=C3COC4C(O)C(C)=CC(C(=O)O1)C34O)O2 (stereo not shown)", "counts", "1.95E+04"],
  ["CC[C@H](C)[C@H]1O[C@]2(CC[C@@H]1CO)C[C@@H]1C[C@@H](C/C=C(\\C)[C@@H](O[C@H]3C[C@H](OC)[C@@H](O)[C@H](C)O3)[C@@H](C)/C=C/C=C3\\CO[C@@H]4[C@H](O)C(C)=C[C@@H](C(=O)O1)[C@]34O)O2 [M5, 24-hydroxy-H2B1a monosaccharide]", "counts", "7.86E+02"]
]}

Now, please, on to the next compound.
Need Observed Cmax, peak area of CCC(C)C1OC2(CCC1C)CC1CC(CC=C(C)C(OC3CC(OC)C(OC4CC(OC)C(O)C(C)O4)C(C)O3)C(C)C=CC=C3COC4C(O)C(CO)=CC(C(=O)O1)C34O)O2 (stereo not shown) [M2, 4-hydroxy-H2B1a] , thanks. 1.84E+04

---

# Protocol Details: Clinical pharmacokinetics of ivermectin metabolites in blood of healthy volunteers
# Assay type: in vivo, human
# Condition Label: PK subject 12, 50 µL blood
Assay Metric: Observed Cmax, peak area (counts)
Numbers only, in counts.

{"columns": ["Molecule", "Assay Metric", "Recorded Number"],
 "data": [
  ["CCC(C)C1OC2(CCC1C)CC1CC(CC=C(C)C(OC3CC(OC)C(OC4CC(OC)C(O)C(C)O4)C(C)O3)C(C)C=CC=C3COC4C(O)C(CO)=CC(C(=O)O1)C34O)O2 (stereo not shown) [M2, 4-hydroxy-H2B1a]", "Observed Cmax, peak area", "1.59E+04"],
  ["CCC(C)C1OC2(CCC1C)CC1CC(CC=C(C)C(OC3CC(OC)C(OC4CC(O)C(O)C(C)O4)C(C)O3)C(C)C=CC=C3COC4C(O)C(CO)=CC(C(=O)O1)C34O)O2 (stereo not shown) [M4, 3″-O-desmethyl, 4-hydroxy-H2B1a]", "Observed Cmax, peak area", "5.92E+03"],
  ["CCC(C)C1OC2(CCC1C)CC1CC(CC=C(C)C(OC3CC(OC)C(OC4CC(O)C(O)C(C)O4)C(C)O3)C(C)C=CC=C3COC4C(O)C(C)=CC(C(=O)O1)C34O)O2 (stereo not shown)", "Observed Cmax, peak area", "1.78E+04"]
]}

Now, please, on to the next molecule.
Need Observed Cmax, peak area of CC[C@H](C)[C@H]1O[C@]2(CC[C@@H]1CO)C[C@@H]1C[C@@H](C/C=C(\C)[C@@H](O[C@H]3C[C@H](OC)[C@@H](O)[C@H](C)O3)[C@@H](C)/C=C/C=C3\CO[C@@H]4[C@H](O)C(C)=C[C@@H](C(=O)O1)[C@]34O)O2 [M5, 24-hydroxy-H2B1a monosaccharide] , thanks. 7.29E+02
